IC50 values by entry
- target-entity: UniProt:P05164
- Sequence (P05164 49-745): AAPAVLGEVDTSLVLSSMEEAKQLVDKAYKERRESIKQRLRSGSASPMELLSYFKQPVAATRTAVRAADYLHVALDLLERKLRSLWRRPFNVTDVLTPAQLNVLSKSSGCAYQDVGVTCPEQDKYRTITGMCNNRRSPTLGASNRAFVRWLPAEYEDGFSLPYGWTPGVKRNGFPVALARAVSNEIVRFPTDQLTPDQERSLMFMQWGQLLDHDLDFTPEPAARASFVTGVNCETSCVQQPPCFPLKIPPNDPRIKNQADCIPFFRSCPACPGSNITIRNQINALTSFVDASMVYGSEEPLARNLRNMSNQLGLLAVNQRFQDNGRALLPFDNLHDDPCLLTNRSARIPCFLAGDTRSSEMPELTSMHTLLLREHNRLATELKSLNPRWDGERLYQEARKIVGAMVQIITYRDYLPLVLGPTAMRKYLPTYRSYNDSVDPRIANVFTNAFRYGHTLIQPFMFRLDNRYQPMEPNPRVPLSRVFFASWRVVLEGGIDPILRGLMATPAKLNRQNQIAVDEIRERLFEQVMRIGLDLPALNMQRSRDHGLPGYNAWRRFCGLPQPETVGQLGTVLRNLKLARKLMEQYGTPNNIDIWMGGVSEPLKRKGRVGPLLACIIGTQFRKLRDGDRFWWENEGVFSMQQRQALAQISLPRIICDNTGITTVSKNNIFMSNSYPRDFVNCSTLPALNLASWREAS
- measurement-notes: MPO Peroxidation Assay (Amplex Red Assay)
- Type: biochemical
- measurement-parameters: MPO peroxidation activity, 100 mM KPi (pH 7.4), ten minute preincubation; potency ranges defined in nM
- Method: MPO Peroxidation Assay (Amplex Red Assay) MPO peroxidation activity was measured in 100 mM KPi (pH 7.4) by utilizing the non-fluorescent reagent Amplex Red (Invitrogen Cat. #A12222) which can be oxidized to the highly fluorescent resorufin. […] IC50 values were calculated by determining the slope of the linear portion of the kinetic trace (180-540 secs), and using that calculated slope to determine % inhibition occurring at each concentration of inhibitor using the following equation: […]

Take a look at these entries with their results.
[
  {
    "compound": "Nc1cc(C2CCNCc3cc(cc(OC(F)(F)F)c3)COc3cccc(c3)Cn3cc2cn3)c2nn[nH]c2n1 (centres unmarked)",
    "endpoint": "IC50",
    "recorded-value": "1000 to 10000 nM"
  },
  {
    "compound": "Nc1cc(C2CCN[C@H]3CC[C@@H](COc4cccc(c4)Cn4cc2cn4)C3)c2nn[nH]c2n1 (some centres unmarked)",
    "endpoint": "IC50",
    "recorded-value": "101 to 999 nM"
  },
  {
    "compound": "Nc1cc(C2CCNCCc3cccc(c3)OCc3cccc(c3)Cn3cc2cn3)c2nn[nH]c2n1 (centres unmarked)",
    "endpoint": "IC50",
    "recorded-value": "101 to 999 nM"
  },
  {
    "compound": "Nc1cc(C2CCNCC3(CC3)COc3cccc(c3)Cn3cc2cn3)c2nn[nH]c2n1 (centres unmarked) [Example 19]",
    "endpoint": "IC50",
    "recorded-value": "101 to 999 nM"
  },
  {
    "compound": "CN1CCC(c2cc(N)nc3[nH]nnc23)c2cnn(c2)Cc2cccc(c2)Oc2cccc(c2)C1 (centres unmarked)",
    "endpoint": "IC50",
    "recorded-value": "1000 to 10000 nM"
  },
  {
    "compound": "Nc1cc(C2CCN[C@H](CO)Cc3cccc(c3)Oc3cccc(c3)Cn3cc2cn3)c2nn[nH]c2n1 (some centres unmarked)",
    "endpoint": "IC50",
    "recorded-value": "101 to 999 nM"
  }
]

Inquiry: State, in one line, measured IC50 of Nc1cc(C2CCN3C[C@H](Cc4ccccc4)[C@@H](C3)Oc3cccc(c3)Cn3cc2cn3)c2nn[nH]c2n1 (some centres unmarked)
Reply text: 101 to 999 nM

Inquiry: Determine its reported IC50: Nc1cc(C2CCNC34CCC(c5ccccc5)(CC3)[C@H](C4)Oc3cccc(c3)Cn3cc2cn3)c2nn[nH]c2n1 (some centres unmarked)
Reply text: 1 to 100 nM

====

- target-entity: UniProt:P05164
- measurement-notes: MPO Chlorination Assay (APF Assay)
- Type: biochemical
- measurement-parameters: MPO chlorination activity, 100 mM KPi (pH 7.4), 120 mM NaCl, ten minute preincubation; potency ranges defined in nM
Measured IC50 accompanies every entry in the list below.

These solved cases illustrate the format of a correct answer.
[
  {
    "molecule": "Nc1cc(C2CCNCc3cc(cc(OC(F)(F)F)c3)COc3cccc(c3)Cn3cc2cn3)c2nn[nH]c2n1 (stereo not drawn)",
    "recorded-value": "101 to 999 nM"
  },
  {
    "molecule": "Nc1cc(C2CCN[C@H]3CC[C@@H](COc4cccc(c4)Cn4cc2cn4)C3)c2nn[nH]c2n1 (stereo partly drawn)",
    "recorded-value": "1 to 100 nM"
  },
  {
    "molecule": "COc1ccc2cc1OCc1cccc(c1)Cn1cc(cn1)C(c1cc(N)nc3[nH]nnc13)CCNC2 (stereo not drawn)",
    "recorded-value": "101 to 999 nM"
  }
]

Inquiry: For UniProt:P05164, give IC50 of the listed molecule: CN1CCC(c2cc(N)nc3[nH]nnc23)c2cnn(c2)Cc2cccc(c2)Oc2cccc(c2)C1 (stereo not drawn)
Reply text: 101 to 999 nM

Inquiry: Print UniProt:P05164 IC50 for Nc1cc(C2CCNCC(=O)N(CCc3ccccc3)Cc3cccc(c3)Cn3cc2cn3)c2nn[nH]c2n1 (stereo not drawn) .
Reply text: 1 to 100 nM

Inquiry: For UniProt:P05164, give IC50 of the listed molecule: Nc1cc(C2CCNCCc3cccc(c3)Oc3cccc(c3)Cn3cc2cn3)c2nn[nH]c2n1 (single isomer, unassigned) [Example 4]
Reply text: 101 to 999 nM

Inquiry: # assay system UniProt:P05164: give IC50 of Nc1cc(C2CCNCCc3cccc(c3)OCc3cccc(c3)Cn3cc2cn3)c2nn[nH]c2n1 (stereo not drawn)
Reply text: 1 to 100 nM

Inquiry: Answer briefly: IC50 recorded on UniProt:P05164 for Nc1cc(C2CCNCC(F)(F)c3cccc(c3)Oc3cccc(c3)Cn3cc2cn3)c2nn[nH]c2n1 (stereo not drawn)
Reply text: 1 to 100 nM

Inquiry: # lookup: UniProt:P05164 IC50, key = Nc1cc(C2CCNCc3cc(F)cc(c3)OCc3cccc(c3)Cn3cc2cn3)c2nn[nH]c2n1 (stereo not drawn)
Reply text: 1 to 100 nM
